System: Staphylococcus aureus
experimental details: Antibacterial activity against quinolone-resistant Staphylococcus aureus CCARM 3519 after 24 hrs by broth microdilution method
Format: functional
assay setup: CCARM 3519, 24 h
Overview of recorded MIC for various compounds

compound	MIC
CCC(C)[C@@H](C(=O)O)N1C(=O)/C(=C/c2cc3cc(OCc4ccc(C)cc4)ccc3nc2Cl)SC1=S (some centres undefined)	2 µg/mL
O=C(O)[C@H](Cc1ccccc1)N1C(=O)/C(=C/c2cc3cc(OCc4ccccc4F)ccc3nc2Cl)SC1=S	2 µg/mL
CC(C)C[C@@H](C(=O)O)N1C(=O)/C(=C/c2cc3cc(OCc4ccc(Cl)cc4)ccc3nc2Cl)SC1=S	1 µg/mL
Cc1onc(-c2ccccc2)c1C(=O)N[C@@H]1C(=O)N2[C@@H]1SC(C)(C)[C@@H]2C(=O)O [OXACILLIN]	1 µg/mL

----------
Test system: Staphylococcus aureus
experimental details: Antibacterial activity against Staphylococcus aureus KCTC 209 after 24 hrs by broth microdilution method
Format: functional
assay setup: KCTC 209, 24 h

compound	measure unit	MIC
CCC(C)[C@@H](C(=O)O)N1C(=O)/C(=C/c2cc3cc(OCc4ccccc4F)ccc3nc2Cl)SC1=S (stereo partly specified)	µg/mL	32
O=C(O)[C@H](Cc1ccccc1)N1C(=O)/C(=C/c2cc3cc(OCc4ccc(Cl)cc4)ccc3nc2Cl)SC1=S	µg/mL	8
O=C(O)[C@H](Cc1ccccc1)N1C(=O)/C(=C/c2cc3cc(OCc4ccccc4Cl)ccc3nc2Cl)SC1=S	µg/mL	64
CC(C)C[C@@H](C(=O)O)N1C(=O)/C(=C/c2cc3cc(OCc4ccccc4Cl)ccc3nc2Cl)SC1=S	µg/mL	4
Cc1onc(-c2ccccc2)c1C(=O)N[C@@H]1C(=O)N2[C@@H]1SC(C)(C)[C@@H]2C(=O)O [OXACILLIN]	µg/mL	1
CCC(C)[C@@H](C(=O)O)N1C(=O)/C(=C/c2cc3cc(OCc4ccc(F)cc4)ccc3nc2Cl)SC1=S (stereo partly specified)	µg/mL	2
O=C(O)[C@H](Cc1ccccc1)N1C(=O)/C(=C/c2cc3cc(OCc4cccc(F)c4)ccc3nc2Cl)SC1=S	µg/mL	64
CCC(C)[C@@H](C(=O)O)N1C(=O)/C(=C/c2cc3cc(OCc4ccc(Cl)cc4)ccc3nc2Cl)SC1=S (stereo partly specified)	µg/mL	8
Cc1ccc(COc2ccc3nc(Cl)c(/C=C4\SC(=S)N([C@@H](Cc5ccccc5)C(=O)O)C4=O)cc3c2)cc1	µg/mL	8
O=C(O)[C@H](Cc1ccccc1)N1C(=O)/C(=C/c2cc3cc(OCc4ccccc4Br)ccc3nc2Cl)SC1=S	µg/mL	8
CCC(C)[C@@H](C(=O)O)N1C(=O)/C(=C/c2cc3cc(OCc4ccc(C)cc4)ccc3nc2Cl)SC1=S (stereo partly specified)	µg/mL	4

----------
Overview of recorded MIC for various compounds
Tested on: Staphylococcus aureus
experimental details: Antibacterial activity against quinolone-resistant Staphylococcus aureus CCARM 3519 after 24 hrs by broth microdilution method
Assay type: functional
assay setup: CCARM 3519, 24 h
reported endpoint: MIC

compound	result
O=C(O)[C@H](Cc1ccccc1)N1C(=O)/C(=C/c2cc3cc(OCc4ccc(F)cc4)ccc3nc2Cl)SC1=S	4 µg/mL
CCC(C)[C@@H](C(=O)O)N1C(=O)/C(=C/c2cc3cc(OCc4cccc(F)c4)ccc3nc2Cl)SC1=S (stereo partly specified)	2 µg/mL
CC(C)C[C@@H](C(=O)O)N1C(=O)/C(=C/c2cc3cc(OCc4cccc(Cl)c4)ccc3nc2Cl)SC1=S	2 µg/mL
O=C(O)[C@H](Cc1ccccc1)N1C(=O)/C(=C/c2cc3cc(OCc4cccc(Cl)c4)ccc3nc2Cl)SC1=S	2 µg/mL
O=C(O)[C@H](Cc1ccccc1)N1C(=O)/C(=C/c2cc3cc(OCc4ccccc4Br)ccc3nc2Cl)SC1=S	2 µg/mL
COc1c(N2CCNC(C)C2)c(F)cc2c(=O)c(C(=O)O)cn(C3CC3)c12 (stereo unspecified) [GATIFLOXACIN]	4 µg/mL
CCC(C)[C@@H](C(=O)O)N1C(=O)/C(=C/c2cc3cc(OCc4cccc(Cl)c4)ccc3nc2Cl)SC1=S (stereo partly specified)	2 µg/mL
CCC(C)[C@@H](C(=O)O)N1C(=O)/C(=C/c2cc3cc(OCc4ccccc4Cl)ccc3nc2Cl)SC1=S (stereo partly specified)	2 µg/mL
O=C(O)[C@H](Cc1ccccc1)N1C(=O)/C(=C/c2cc3cc(OCc4ccccc4Cl)ccc3nc2Cl)SC1=S	2 µg/mL
CCC(C)[C@@H](C(=O)O)N1C(=O)/C(=C/c2cc3cc(OCc4ccc(F)cc4)ccc3nc2Cl)SC1=S (stereo partly specified)	1 µg/mL
Cc1ccc(COc2ccc3nc(Cl)c(/C=C4\SC(=S)N([C@@H](Cc5ccccc5)C(=O)O)C4=O)cc3c2)cc1	1 µg/mL
CC(C)C[C@@H](C(=O)O)N1C(=O)/C(=C/c2cc3cc(OCc4ccccc4Cl)ccc3nc2Cl)SC1=S	2 µg/mL
O=C(O)[C@H](Cc1ccccc1)N1C(=O)/C(=C/c2cc3cc(OCc4ccc(Cl)cc4)ccc3nc2Cl)SC1=S	2 µg/mL
Cc1ccc(COc2ccc3nc(Cl)c(/C=C4\SC(=S)N([C@@H](CC(C)C)C(=O)O)C4=O)cc3c2)cc1	1 µg/mL
O=C(O)[C@H](Cc1ccccc1)N1C(=O)/C(=C/c2cc3cc(OCc4cccc(F)c4)ccc3nc2Cl)SC1=S	2 µg/mL
COc1c(N2C[C@@H]3CCCN[C@@H]3C2)c(F)cc2c(=O)c(C(=O)O)cn(C3CC3)c12 [MOXIFLOXACIN]	4 µg/mL
